Target: T1, biotinylated native human ApoC3 (human, UniProt P02656 21-99, biotinylated (site not stated))
T1 construct: also called biotinylated human ApoC3
T1 sequence (P02656 21-99): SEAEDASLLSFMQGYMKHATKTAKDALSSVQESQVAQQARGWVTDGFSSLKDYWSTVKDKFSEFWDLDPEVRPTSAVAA
Assay: SPR, IgG1 over biotinylated ApoC3 on SA chip, pH 7.4
Provide the recorded Kd for the entries that follow.
Answers are plain numbers, in nM.

The following binders have reported results that may help.
• mAb8 (antibody, IgG1, V domains shown, Produced as full length IgG1 (kappa) in ExpiCHO-S cells; also called humanized anti-ApoC3 antibody mAb8) VH: QLVESGGGLVQPGGSLRLSCAASGFTFSTYSMRWVRQAPGKGLEWVSSIHTDAGGTAYRDSVKGRFTISRDNAKNTLYLQMNNLRAEDTAVYYCVIAGYSDWGQGTLVTVSS VL: DIVMTQSPLSLSVVPGEPASISCKTSQGLVHSDGKTYFYWFLQKPGQSPQQLIYQVSNRASGVPDRFSGSGSGTDFTLKISRVEAEDVGVYYCAHGTYYPHTFGQGTRLEIK = 0.1
• mAb19 (antibody, IgG1, V domains shown, Produced as full length IgG1 (kappa) in ExpiCHO-S cells; also called humanized anti-ApoC3 antibody mAb19) VH: QLVESGGGLVQPGGSLRLSCAASGFTFSTYSMRWVRQAPGKGLEWVSSIHTDAGGTAYRDSVKGRFTISRDNAKNTLYLQMNNLRPEDTAVYYCVIAGYSDWGQGTLVTVSS VL: DIVMTQSPGSLSVTPGEPASISCKTSQGLVHSGGKTYFYWFLQKPGQSPQQLIYQVSNRASGVPDRFTGSGSGTDFTLKISGVEAEDAGVYYCAQGTYYPHTFGQGTRLEIK = 0.05
• mAb16 (antibody, IgG1, V domains shown, Produced as full length IgG1 (kappa) in ExpiCHO-S cells; also called humanized anti-ApoC3 antibody mAb16) VH: QLVESGGGLVQPGGSLRLSCAASGFTFGTYSMRWVRQAPGKGLEWVSSIHTEAGGTAYRDSVKGRFTISRDNAKNTLYLQMNNLKAEDTAIYYCVIAGYSDWGQGTQVTVSS VL: DIVMTQSPLSLPVTPGESASISCKTSQGLVHSGGKTYFYWFLQKPGQSPQQLIYQVSNRASGVPDRFTGSGSGTDFTLKISRVEAEDAGVYYCAHGTYYPHTFGSGTRLEIK = 0.69
• mAb6 (antibody, IgG1, V domains shown, Produced as full length IgG1 (kappa) in ExpiCHO-S cells; also called humanized anti-ApoC3 antibody mAb6) VH: QLVESGGGLVQPGGSLRLSCAASGFTFGTYSMRWVRQAPGKGLEWVSSIHTEGGGTAYRDSVKGRFTISRDNAKNTLYLQMNSLRAEDTAVYYCVIAGYSDWGQGTLVTVSS VL: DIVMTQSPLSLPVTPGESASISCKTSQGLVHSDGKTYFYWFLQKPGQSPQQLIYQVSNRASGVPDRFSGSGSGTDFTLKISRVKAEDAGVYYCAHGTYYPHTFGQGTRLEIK = 0.06

State the recorded Kd for every item in the following list.
1. mAb12 (antibody, IgG1, V domains shown, Produced as full length IgG1 (kappa) in ExpiCHO-S cells; also called humanized anti-ApoC3 antibody mAb12) VH: QLVESGGGLVQPGGSLRLSCAASGFTFSTYSMRWVRQVPGKGLEWVSSIHTDAGGTAYRDSVKGRFTISRDNAKNTLYLQMNSLRPEDTAIYYCVIAGYSDWGQGTLVTVSS VL: DIVMTQSPLSLSVTPGEPASISCKTSQGLVHSDGKTYFYWFLQKPGQSPQQLIYQVSNRASGVPDRFTGSGSGTDFTLKISRVKAEDVGVYYCAHGTYYPHTFGQGTRLEIK
2. mAb20 (antibody, IgG1, V domains shown, Produced as full length IgG1 (kappa) in ExpiCHO-S cells; also called humanized anti-ApoC3 antibody mAb20) VH: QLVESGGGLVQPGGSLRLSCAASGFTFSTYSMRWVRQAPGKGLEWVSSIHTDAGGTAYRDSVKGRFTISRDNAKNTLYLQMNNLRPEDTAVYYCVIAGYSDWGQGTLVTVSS VL: DIVMTQSPGSLSVTPGEPASISCKTSQGLVHSGGKTYFYWFLQKPGQSPQQLIYQVSNRASGVPDRFTGSGSGTDFTLKISGVEAEDAGVYYCAHGTYYPHTFGQGTRLEIK
3. mAb2 (antibody, IgG1, V domains shown, Produced as full length IgG1 (kappa) in ExpiCHO-S cells; also called humanized anti-ApoC3 antibody mAb2) VH: QLVESGGGLVQPGGSLRLSCAASGFTFGTYSMRWVRQVPGKGLEWVSSIHTEGGGTAYRDSVKGRFTISRDNAKNTLYLQMNSLRAEDTAIYYCVIAGYSDWGQGTLVTVSS VL: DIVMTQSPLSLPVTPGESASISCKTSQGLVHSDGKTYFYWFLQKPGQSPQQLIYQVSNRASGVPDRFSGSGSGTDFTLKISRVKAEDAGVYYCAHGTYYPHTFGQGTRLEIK

0.07
0.59
0.06

State the recorded Kd for every item in the following list.
1. mAb5 (antibody, IgG1, V domains shown, Produced as full length IgG1 (kappa) in ExpiCHO-S cells; also called humanized anti-ApoC3 antibody mAb5) VH: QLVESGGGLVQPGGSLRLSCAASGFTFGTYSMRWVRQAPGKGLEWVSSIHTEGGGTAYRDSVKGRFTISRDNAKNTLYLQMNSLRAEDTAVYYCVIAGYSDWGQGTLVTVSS VL: DIVMTQSPLSLPVTPGESASISCKTSQGLVHSDGKTYFYWFLQKPGQSPQQLIYQVSNRASGVPDRFTGSGSGTDFTLKISRVKAEDAGVYYCAHGTYYPHTFGQGTRLEIK
2. 5E5VH5_VL8 human IgG1 (antibody, V domains shown, Tested as human IgG1; the tested lot is not tied to them in words) VH: QLQLVESGGGLVQPGGSLRLSCAASGFTFGTYSMRWVRQVPRKALEWVSSIHTDGGGTAYRDSVKGRFTISRDNAKNTLYLQMNNLKPEDTAIYYCVIAGYSDWGQGTQVTVSS VL: ATMLTQSPGSLSVVPGESASISCKTSQGLVHSDGKTYFYWFLQKPGQSPQQLIYQVSNRASGVPDRFTGSGSGTDFTLKISGVKAEDAGVYYCAHGTYYPHTFGSGTRLEIK
3. mAb9 (antibody, IgG1, V domains shown, Produced as full length IgG1 (kappa) in ExpiCHO-S cells; also called humanized anti-ApoC3 antibody mAb9) VH: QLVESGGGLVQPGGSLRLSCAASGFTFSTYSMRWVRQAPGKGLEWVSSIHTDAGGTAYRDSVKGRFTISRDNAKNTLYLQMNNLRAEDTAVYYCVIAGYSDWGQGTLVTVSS VL: DIVMTQSPLSLSVTPGEPASISCKTSQGLVHSDGKTYFYWFLQKPGQSPQQLIYQVSNRASGVPDRFSGSGSGTDFTLKISRVEAEDVGVYYCAHGTYYPHTFGQGTRLEIK
4. mAb17 (antibody, IgG1, V domains shown, Produced as full length IgG1 (kappa) in ExpiCHO-S cells; also called humanized anti-ApoC3 antibody mAb17) VH: QLVESGGGLVQPGGSLRLSCAASGFTFSTYSMRWVRQAPGKGLEWVSSIHTEAGGTAYRDSVKGRFTISRDNAKNTLYLQMNNLRAEDTAVYYCVIAGYSDWGQGTLVTVSS VL: DIVMTQSPLSLPVTPGEPASISCKTSQGLVHSGGKTYFYWFLQKPGQSPQQLIYQVSNRASGVPDRFTGSGSGTDFTLKISRVEAEDAGVYYCAQGTYYPHTFGQGTRLEIK

1. 0.15
2. 0.98
3. 0.15
4. 0.05
